Target: T1, CD123 (Homo sapiens (Human), UniProt P26951 19-305, limits assumed)
T1 construct: also called CD123-Signal
T1 sequence: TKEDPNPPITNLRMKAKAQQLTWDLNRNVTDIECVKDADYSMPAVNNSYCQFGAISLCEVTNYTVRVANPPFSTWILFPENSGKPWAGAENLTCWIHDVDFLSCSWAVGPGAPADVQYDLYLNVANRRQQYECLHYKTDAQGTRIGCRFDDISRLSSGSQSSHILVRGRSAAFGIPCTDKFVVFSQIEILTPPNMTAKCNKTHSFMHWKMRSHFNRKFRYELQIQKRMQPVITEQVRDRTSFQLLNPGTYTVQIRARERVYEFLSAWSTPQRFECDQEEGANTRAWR
Assay: ELISA, format not described
Set-up: unit not given here
MEASURE: ELISA_avg

Ask: # get_value(readout='ELISA_avg', item= D domain SEQ ID NO: 754 (designed binder) MGSWYEFEERLWAIEERLYALGGSEAELAAFEKEIAAFESELQAYKGKGNPEVEYLRYEAAWIRDFLQAYRHN )
Result: 5.4

Ask: Name the reported ELISA_avg value associated with the binder D domain SEQ ID NO: 734 (designed binder) MGSWNEFYDRLSAIYFRLQALGGFEAELAAFEKEIAAFESELQAYKGKGNPEVEHLRWYAADIRMILQAYRHN
Result: 9

Ask: Entry D domain SEQ ID NO: 691 (designed binder) MGSWVEFEYRLDAISDRLWALGGSEAELAFFENEIASFESDLQFYKGKGNPEVEALMFEAEAIDDELHAYRHN : reported ELISA_avg = ?
Result: 6.5

Ask: Which ELISA_avg is listed for D domain SEQ ID NO: 755 (designed binder) MGSWYEFENRLEAIEERLWALGGSEAELAAFEKEIAAFESELQAYKGKGNPEVEMLREEAAFIRDWLQAYRHN ?
Result: 6.1

Ask: I would be grateful if you could share the reported ELISA_avg for D domain SEQ ID NO: 752 (designed binder) MGSWWEFHDRLEAIEDRLWALGGSEAELAAFEKEIAAFESELQAYKGKGNPEVEYLRIEAADIRRQLQAYRHN .
Result: 6.4

Cited source for all entries: patent US20250026849A1
